# protocol description: folding stability dG unfold (combined trypsin and chymotrypsin); higher = more stable
readout kind: folding stability dG unfold (kJ/mol)

{"macromolecule sequence": "SAGGENVIIRYKDPDRFKEAIQDAPGIPPENVKTKPNPNGWNEVTFPNPEALDRLKKAGYPVDKIEPSAGGS [r16_381_TrROS]", "readout kind": "folding stability dG unfold", "relational operator": "<", "test value": -4.18}
{"macromolecule sequence": "SAGGMPEPRPIPLTLTLLVDPEDPESVEEKLREFFEAFGADEITRVERELLPDGRALVTAEVLVNEPVSAGG [r13_222_TrMRF]", "readout kind": "folding stability dG unfold", "relational operator": "=", "test value": 4.82}
{"macromolecule sequence": "SAGGMLVEARPVLRLTLVSPDGTPREFELPFTVPFSPENPEALLEEAEAIARAIAEATGAEAEIEIEPSAGG [r13_853_TrMRF]", "readout kind": "folding stability dG unfold", "relational operator": "=", "test value": 1.33}
{"macromolecule sequence": "SAGSAEELKEKIREELRERLAKELGYPNIEIKKVEVLKYDPETGTITVKVELKLPDGKELTLTITVPVKSAG [r5_20_JUSTAS]", "readout kind": "folding stability dG unfold", "relational operator": "=", "test value": 16.3}

Provenance of the data: the supplement of paper PMC12764529
